measured on: GTPase KRas (Homo sapiens, UniProt P01116, G12V)
Sequence (P01116 whole entry G12V): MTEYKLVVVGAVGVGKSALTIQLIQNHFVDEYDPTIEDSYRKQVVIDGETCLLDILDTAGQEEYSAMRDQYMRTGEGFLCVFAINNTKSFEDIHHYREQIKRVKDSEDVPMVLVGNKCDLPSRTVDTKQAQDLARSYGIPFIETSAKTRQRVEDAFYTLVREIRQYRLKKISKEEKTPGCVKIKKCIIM
method notes: Induction of KRAS G12V mutant degradation in human SW1990 cells incubated for 24 hrs
Type: cell-based
Catalogue of DC50 values
metric: DC50

INSERT INTO results (compound, measured_on, recorded_measurement) VALUES
  ('CCc1c(F)ccc2cc(O)cc(-c3ncc4c(N5CCC[C@@](C)(O)C5)nc(OCC5(CN6CCC(OC7CCN(C8CCN(c9ccc%10c(c9)CN(C9CCC(=O)NC9=O)C%10=O)CC8)CC7)CC6)CC5)nc4c3F)c12 (stereo partly drawn)', 'GTPase KRas (Homo sapiens, UniProt P01116, G12V)', '≤ 1 nM'),
  ('CCc1c(F)ccc2cc(O)cc(-c3ncc4c(N5CCC[C@@](C)(O)C5)nc(OCC5(CN6CC(N7CCC(N8CCN(c9ccc%10c(c9)CN([C@H]9CCC(=O)NC9=O)C%10=O)CC8)CC7)C6)CC5)nc4c3F)c12', 'GTPase KRas (Homo sapiens, UniProt P01116, G12V)', '≤ 1 nM'),
  ('CCc1c(F)ccc2cc(O)cc(-c3ncc4c(N5CCC[C@@](C)(O)C5)nc(OCC5(CN6CCC(C)(CN7CC8(CCN(c9ccc%10c(c9)CN([C@H]9CCC(=O)NC9=O)C%10=O)CC8)C7)CC6)CC5)nc4c3F)c12', 'GTPase KRas (Homo sapiens, UniProt P01116, G12V)', '≤ 1 nM');
